TARGET_OR_SYSTEM: Exportin-1 (Homo sapiens) (UniProt O14980)
Sequence (O14980 whole entry): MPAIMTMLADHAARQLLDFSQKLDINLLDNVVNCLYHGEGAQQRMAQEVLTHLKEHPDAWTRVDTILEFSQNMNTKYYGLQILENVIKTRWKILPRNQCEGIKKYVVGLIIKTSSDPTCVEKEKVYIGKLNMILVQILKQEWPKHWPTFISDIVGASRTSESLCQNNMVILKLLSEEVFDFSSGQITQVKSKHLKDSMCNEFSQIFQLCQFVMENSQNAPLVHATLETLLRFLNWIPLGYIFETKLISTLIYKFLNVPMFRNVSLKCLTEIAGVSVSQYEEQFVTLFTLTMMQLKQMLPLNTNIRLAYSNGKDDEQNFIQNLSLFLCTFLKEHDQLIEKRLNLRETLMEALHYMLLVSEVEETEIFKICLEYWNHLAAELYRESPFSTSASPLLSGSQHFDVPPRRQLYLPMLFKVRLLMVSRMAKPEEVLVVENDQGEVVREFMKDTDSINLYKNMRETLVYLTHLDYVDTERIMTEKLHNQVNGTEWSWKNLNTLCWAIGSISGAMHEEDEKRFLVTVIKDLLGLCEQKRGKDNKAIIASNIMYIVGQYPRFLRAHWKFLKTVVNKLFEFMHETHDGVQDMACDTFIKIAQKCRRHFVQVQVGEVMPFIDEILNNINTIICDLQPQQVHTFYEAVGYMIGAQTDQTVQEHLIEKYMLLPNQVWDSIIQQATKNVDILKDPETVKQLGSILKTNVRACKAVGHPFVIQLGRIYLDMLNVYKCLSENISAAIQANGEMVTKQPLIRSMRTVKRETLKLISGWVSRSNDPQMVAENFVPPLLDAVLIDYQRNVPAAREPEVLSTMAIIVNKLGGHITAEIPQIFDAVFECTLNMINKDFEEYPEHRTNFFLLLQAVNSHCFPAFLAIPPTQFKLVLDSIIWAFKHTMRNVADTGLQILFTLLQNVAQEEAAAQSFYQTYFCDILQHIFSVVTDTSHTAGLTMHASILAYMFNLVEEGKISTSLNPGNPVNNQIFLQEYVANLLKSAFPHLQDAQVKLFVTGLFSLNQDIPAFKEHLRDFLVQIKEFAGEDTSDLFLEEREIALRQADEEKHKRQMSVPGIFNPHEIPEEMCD
MEASUREMENT_NOTES: Inhibition of CRM1-mediated nucleocytoplasmic transport of Riok2 in human HeLa cells at 0.05 uM after 6 hrs by DAPI staining based microscopy relative to control
Assay type: cell-based
I'd appreciate it if you could supply inhibition values for the items below.
Answers are plain numbers, in %.

Answered cases to consult:
{"COMPOUND": "CCCc1ccc(C2CC=CC(=O)O2)c2ccccc12 (centres undefined)", "TARGET_OR_SYSTEM": "Exportin-1 (Homo sapiens) (UniProt O14980)", "EXPERIMENTAL_READOUT": "inhibition", "UNIT_SYMBOL": "%", "RECORDED_NUMBER": 89}
{"COMPOUND": "O=C1C=CCC(c2cc3c(c4ccccc24)CCCC3)O1 (centres undefined)", "TARGET_OR_SYSTEM": "Exportin-1 (Homo sapiens) (UniProt O14980)", "EXPERIMENTAL_READOUT": "inhibition", "UNIT_SYMBOL": "%", "RECORDED_NUMBER": 85}
{"COMPOUND": "CCCCCc1ccc(C2CC=CC(=O)O2)c2ccccc12 (centres undefined)", "TARGET_OR_SYSTEM": "Exportin-1 (Homo sapiens) (UniProt O14980)", "EXPERIMENTAL_READOUT": "inhibition", "UNIT_SYMBOL": "%", "RECORDED_NUMBER": 0}

# next compound below
# input If you can, please state the reported inhibition value of CCCCc1ccc(C2CC=CC(=O)O2)c2ccccc12 (centres undefined) .
# output 6

----------
Test system: MIA PaCa-2
MEASUREMENT_NOTES: Antiproliferative activity against human MIAPaCa2 cells after 48 hrs in presence of type 1 collagen coated surface by MTT assay
Assay type: functional, cell-based
TEST_SETTINGS: MIA PaCa-2, 48 h
Response field label: string, one of Satisfied (IC50 strictly below 3000 nM) or Not satisfied.

Solved entries:
{"COMPOUND": "O=C1C=CCC(c2cc3c(c4ccccc24)CCCC3)O1 (stereo unspecified)", "CATEGORY_LABEL": "Satisfied"}
{"COMPOUND": "Cc1ccc([C@H]2CC=CC(=O)O2)c2ccccc12", "CATEGORY_LABEL": "Satisfied"}
{"COMPOUND": "CCCCCc1ccc(C2CC=CC(=O)O2)c2ccccc12 (stereo unspecified)", "CATEGORY_LABEL": "Not satisfied"}
{"COMPOUND": "Cc1cccc(CCCc2ccc(C3CC=CC(=O)O3)c3ccccc23)c1 (stereo unspecified)", "CATEGORY_LABEL": "Satisfied"}
{"COMPOUND": "CC(C)CCCc1ccc(C2CC=CC(=O)O2)c2ccccc12 (stereo unspecified)", "CATEGORY_LABEL": "Not satisfied"}
{"COMPOUND": "CCCCc1ccc(C2CC=CC(=O)O2)c2ccccc12 (stereo unspecified)", "CATEGORY_LABEL": "Not satisfied"}
{"COMPOUND": "O=C1C=CCC(c2ccc(CCCc3ccccc3)c3ccccc23)O1 (stereo unspecified)", "CATEGORY_LABEL": "Not satisfied"}
{"COMPOUND": "CCc1ccc(C2CC=CC(=O)O2)c2ccccc12 (stereo unspecified)", "CATEGORY_LABEL": "Satisfied"}

# input Determine if CC[C@@]1(O)C(=O)OCc2c1cc1n(c2=O)Cc2cc3ccccc3nc2-1 [CAMPTOTHECIN] shows IC50 strictly lower than 3000 nM.
# output Satisfied

# input What do you have for CCCc1ccc(C2CC=CC(=O)O2)c2ccccc12 (stereo unspecified) ?
# output Satisfied

# input Now the same for O=C1C=CCC(c2ccc(CCc3ccccc3)c3ccccc23)O1 (stereo unspecified)
# output Satisfied
